Where these numbers come from: patent US12398120B2

- TARGET UNDER TEST: ADAMTS4 (Homo sapiens (Human), UniProt O75173)
- Sequence (O75173 213-685): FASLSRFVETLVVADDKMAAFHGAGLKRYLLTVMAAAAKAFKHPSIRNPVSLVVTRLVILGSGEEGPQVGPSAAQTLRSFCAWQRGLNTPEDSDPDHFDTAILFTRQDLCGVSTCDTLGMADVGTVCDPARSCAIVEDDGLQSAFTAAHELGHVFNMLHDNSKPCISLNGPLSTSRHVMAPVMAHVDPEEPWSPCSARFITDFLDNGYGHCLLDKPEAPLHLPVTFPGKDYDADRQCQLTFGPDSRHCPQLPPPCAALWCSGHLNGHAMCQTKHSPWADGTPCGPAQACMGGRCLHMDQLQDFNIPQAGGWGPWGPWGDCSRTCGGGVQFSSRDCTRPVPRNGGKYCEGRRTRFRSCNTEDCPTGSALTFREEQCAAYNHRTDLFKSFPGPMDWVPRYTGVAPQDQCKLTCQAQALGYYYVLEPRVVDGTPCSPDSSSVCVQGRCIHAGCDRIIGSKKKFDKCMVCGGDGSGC
- ASSAY PROCEDURE: Selectivity assay for ADAMTS-7 modulators: ADAMTS4 (FRET substrate)
- Assay type: biochemical
- CONDITION DESCRIPTION: ADAMTS4 (R&D 4307-AD) 50 nM, substrate Dabcyl-EEVKAKVQPY-Glu(Edans)-NH2 1 μM, 120 min, 32° C.
READOUT LABEL: IC50 (µM)

> print(dat)
                                   compound  endpoint.result
1  Cc1ccc(-c2ccccc2C(=O)NC[C@@]2(C3CC3)NC(=O)NC2=O)cc1Cl               21
2  CCC(C)C1(CNC(=O)c2ccccc2-c2ccc(C(F)(F)F)cc2)NC(=O)NC1=O (stereo not drawn)               21
3  O=C1NC(=O)C(CNC(=O)c2ccc(F)cc2-c2ccc(C(F)(F)F)cc2)(c2cscn2)N1 (stereo not drawn) [Example 199]               16

* * *

- TARGET UNDER TEST: ADAMTS4 (Homo sapiens (Human), UniProt O75173)
- ASSAY PROCEDURE: Selectivity assay for ADAMTS-7 modulators: ADAMTS4 (FRET substrate)
- Type: biochemical
- CONDITION DESCRIPTION: ADAMTS4 (R&D 4307-AD) 50 nM, substrate Dabcyl-EEVKAKVQPY-Glu(Edans)-NH2 1 μM, 120 min, 32° C.
- Description: 1 μl test compound solution (dissolved in DMSO, at the corresponding concentration) or pure DMSO as a control was added per well. […] The increase of fluorescence intensity was measured in appropriate fluorescence plate reader (e.g. TECAN Ultra) using the respective wavelengths for excitation and emission. IC50 values were calculated from percentage of inhibition of enzyme activity as a function of test compound concentration.
READOUT LABEL: IC50 (µM)

> print(dat)
                                    molecule  readout.label  unit.of.measure  endpoint.result
 1  Cc1nc(C2(CNC(=O)c3ccc(F)cc3-c3ccc(C(F)(F)F)cc3)NC(=O)NC2=O)c(C)s1 (racemic)           IC50               µM              9.5
 2  Cc1ncsc1C1(CNC(=O)c2cc(F)ccc2-c2ccc(C(F)(F)F)cc2)NC(=O)NC1=O (single isomer, unassigned; ent-4)           IC50               µM              5.9
 3  Cc1c(C2(CNC(=O)c3ccccc3-c3ccc(C(F)(F)F)cc3)NC(=O)NC2=O)cnn1CC(F)(F)F (racemic)           IC50               µM               21
 4  Cc1ccc(C(=O)NC[C@@]2(C3CC3)NC(=O)NC2=O)c(-c2ccc(C3CC3(F)F)cc2)c1 (single isomer, unassigned) [Example 138]           IC50               µM              4.9
 5  Cc1nn(C)cc1C1(CNC(=O)c2ccccc2-c2ccc(C(F)(F)F)cc2)NC(=O)NC1=O (stereo not drawn) [Example 87]           IC50               µM              6.9
 6  Cc1scnc1C1(CNC(=O)c2cc(F)ccc2-c2ccc(Cl)cc2)NC(=O)NC1=O (single isomer, unassigned; ent-4)           IC50               µM              2.6
 7  Cc1ccc(C(=O)NC[C@@]2(C3CC3)NC(=O)NC2=O)c(-c2ccc(C(F)(F)F)cc2)c1C           IC50               µM              2.8
 8  O=C1NC(=O)C(CNC(=O)c2ccccc2-c2ccc(C(F)(F)F)cc2)(c2ncsc2C(F)(F)F)N1 (stereo not drawn) [Example 264]           IC50               µM               11
 9  Cc1nscc1C1(CNC(=O)c2ccc(F)c(F)c2-c2ccc(C(F)(F)F)cc2)NC(=O)NC1=O (racemic)           IC50               µM               16
10  O=C1NC(=O)C(CNC(=O)c2ccc(F)cc2-c2ccc(C(F)(F)F)cc2)(c2ccnn2C(F)F)N1 (racemic) [Example 262]           IC50               µM               19

I: Cc1nn(C)cc1C1(CNC(=O)c2ccccc2-c2ccc(C(F)(F)F)nc2)NC(=O)NC1=O (racemic)
II: Cn1nccc1C1(CNC(=O)c2ccc(F)cc2-c2ccc(C(F)(F)F)cc2)NC(=O)NC1=O (racemic) [Example 183]
## Task IC50 comparison. Which is larger, I or II ? Answer with the label corresponding to your selection.
## Result I

* * *

- TARGET UNDER TEST: ADAMTS4 (Homo sapiens (Human), UniProt O75173)
- ASSAY PROCEDURE: Selectivity assay for ADAMTS-7 modulators: ADAMTS4 (FRET substrate)
- Format: biochemical
- CONDITION DESCRIPTION: ADAMTS4 (R&D 4307-AD) 50 nM, substrate Dabcyl-EEVKAKVQPY-Glu(Edans)-NH2 1 μM, 120 min, 32° C.
pIC50: −log10 of the molar value.
READOUT LABEL: pIC50

> print(dat)
                                   compound  readout.label  endpoint.result
1  O=C1NC(=O)C(CNC(=O)c2ccccc2-c2ccc(C(F)(F)F)cc2)(c2ncsc2C2CC2)N1 (stereo not drawn) [Example 271]          pIC50             5.57

1: O=C1NC(=O)[C@](CNC(=O)c2ccccc2-c2ccc(C3CCC3)cc2)(C2CC2)N1 [Example 112]
2: Cn1nccc1C1(CNC(=O)c2ccccc2-c2ccc(C(F)(F)F)cc2)NC(=O)NC1=O (stereo not drawn) [Example 185]
## Task Could you tell me which of these two has the smaller pIC50 figure? First: 1 Second: 2 Answer with the label corresponding to your selection.
## Result 2

* * *

- TARGET UNDER TEST: ADAMTS4 (Homo sapiens (Human))
- ASSAY PROCEDURE: Selectivity assay for ADAMTS-7 modulators: ADAMTS4 (FRET substrate)
- Assay type: biochemical
- CONDITION DESCRIPTION: ADAMTS4 (R&D 4307-AD) 50 nM, substrate Dabcyl-EEVKAKVQPY-Glu(Edans)-NH2 1 μM, 120 min, 32° C.
pIC50: −log10 of the molar value.
READOUT LABEL: pIC50

Consider the reported pIC50 for these compounds:
> print(dat)
                                   compound  endpoint.result
1  O=C1NC(=O)C(CNC(=O)c2ccccc2-c2ccc(Cl)cc2)(C2CC(F)(F)C2)N1 (racemic) [Example 246]           < 4.30
2  CC(C)CCC1(CNC(=O)c2ccccc2-c2ccc(C(F)(F)F)cc2)NC(=O)NC1=O (racemic)           < 4.30

## Task Requested read-out: pIC50. Entry: CC1CCC1C1(CNC(=O)c2ccccc2-c2ccc(C(F)(F)F)cc2)NC(=O)NC1=O (stereo not drawn) [Example 26]
## Result < 4.30

* * *

- TARGET UNDER TEST: ADAMTS4 (Homo sapiens (Human), UniProt O75173)
- ASSAY PROCEDURE: Selectivity assay for ADAMTS-7 modulators: ADAMTS4 (FRET substrate)
- Type: biochemical
- CONDITION DESCRIPTION: ADAMTS4 (R&D 4307-AD) 50 nM, substrate Dabcyl-EEVKAKVQPY-Glu(Edans)-NH2 1 μM, 120 min, 32° C.
- Experimental: 1 μl test compound solution (dissolved in DMSO, at the corresponding concentration) or pure DMSO as a control was added per well. […] The increase of fluorescence intensity was measured in appropriate fluorescence plate reader (e.g. TECAN Ultra) using the respective wavelengths for excitation and emission. IC50 values were calculated from percentage of inhibition of enzyme activity as a function of test compound concentration.
READOUT LABEL: IC50 (µM)

> print(dat)
                                   compound                         target.under.test  endpoint.result
1  O=C1NC(=O)[C@](CNC(=O)c2ccccc2-c2ccc(C3(C(F)(F)F)CC3)cc2)(C2CC2)N1 [Example 115]  ADAMTS4 (Homo sapiens (Human), UniProt O75173)              7.8
2  Cn1ccc(C2(CNC(=O)c3ccc(F)c(F)c3-c3ccc(C(F)(F)F)cc3)NC(=O)NC2=O)n1 (racemic) [Example 307]  ADAMTS4 (Homo sapiens (Human), UniProt O75173)               23
3  O=C1NC(=O)[C@](CNC(=O)c2ccc(F)cc2-c2ccc(C(F)(F)F)cc2)(C2CC2)N1 [Example 116]  ADAMTS4 (Homo sapiens (Human), UniProt O75173)               12
4  O=C1NC(=O)[C@](CNC(=O)c2ccccc2-c2ccc(Cl)cc2F)(C2CC2)N1 [Example 54]  ADAMTS4 (Homo sapiens (Human), UniProt O75173)               32

I: Cc1ncsc1C1(CNC(=O)c2ccc(Cl)cc2-c2ccc(C(F)(F)F)cc2)NC(=O)NC1=O (single isomer, unassigned; ent-5) [Example 7]
II: CC(F)(F)c1ccc(-c2ccccc2C(=O)NC[C@@]2(C3CC3)NC(=O)NC2=O)cc1 [Example 125]
III: Cc1cccc(C(=O)NCC2(c3nccn3C)NC(=O)NC2=O)c1-c1ccc(C(F)(F)F)cc1 (single isomer, unassigned; ent-6) [Example 133]
IV: Cc1nonc1C1(CNC(=O)c2ccccc2-c2ccc(C(F)(F)F)cc2)NC(=O)NC1=O (racemic) [Example 32]
## Task Order each entry by recorded IC50, climbing from the minimum. Present the labels in the sequence the task asks for.
## Result III, I, II, IV

a: Cc1scnc1C1(CNC(=O)c2ccccc2-c2ccc(Cl)cc2)NC(=O)NC1=O (racemic) [Example 171]
b: Cn1nccc1C1(CNC(=O)c2ccc(C(F)F)cc2-c2ccc(C(F)(F)F)cc2)NC(=O)NC1=O (single isomer, unassigned; ent-5) [Example 309]
c: Cc1ccc(C(=O)NC[C@@]2(C3CC3)NC(=O)NC2=O)c(-c2ccc(C(F)(F)F)cc2)c1 [Example 218]
d: O=C1NC(=O)C(CNC(=O)c2ccccc2-c2ccc(Cl)cc2)(C2(F)CC2)N1 (single isomer, unassigned; ent-4) [Example 251]
## Task Order each entry by recorded IC50, climbing from the minimum. Present the labels in the sequence the task asks for.
## Result b, c, a, d
